# EXPERIMENTAL TARGET: recombinant HIV-2-proteinase (Human immunodeficiency virus type 2 subtype A, UniProt P04584)
# Construct: recombinant HIV-1- and HIV-2-proteinase
# Sequence (P04584 514-612 limits assumed): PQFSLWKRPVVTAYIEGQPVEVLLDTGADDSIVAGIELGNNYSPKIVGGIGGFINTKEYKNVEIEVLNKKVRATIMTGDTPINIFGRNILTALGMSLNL
# TEST DESCRIPTION: Assay of peptide cleavage by HIV-proteinase (HIV-2)
# EXPERIMENTAL SETUP: substrate H-Lys-Ala-Arg-Val-Leu-Nph-Glu-Ala-Nle-NH2
MEASURED PARAMETER: Ki (nM)
State just the number; it will be interpreted in nM.

In: Ki lookup needed for COc1ccc(CNC(C(=O)NC2c3ccccc3CC2O)C(O)C(Cc2ccccc2)NC(=O)C(NC(=O)OCc2ccccc2)C(C)(C)C)cc1 (stereo not shown) [Example 2] , thanks.
Out: 50

---

# Test system: HIV-1 (HTLV IIIB)-induced cytopathic effect in MT4-cells
# TEST DESCRIPTION: Cellular assay: inhibition of HIV-1-induced cytopathic effect in MT4-cells (MTT)
# Format: cell-based
# EXPERIMENTAL SETUP: Human immunodeficiency virus 1, read-out: IC50 in the cellular assay (virus-inhibitory concentration)
MEASURED PARAMETER: IC50 (nM)
State just the number; it will be interpreted in nM.

In: IC50 lookup needed for COc1ccc(CNC(C(=O)NC2c3ccccc3CC2O)C(O)C(Cc2ccccc2)NC(=O)C(NC(=O)OCc2ccccc2)C(C)(C)C)cc1 (stereo not shown) , thanks.
Out: 250
